Target or system: AtPGDH3 (Arabidopsis thaliana, UniProt Q9LT69)
Construct: mature enzyme, predicted chloroplast transit peptide removed; eXact tag cleaved (tag-free); E. coli BL21 CodonPlus(DE3)-RIL; homotetramer
Sequence (Q9LT69 44-588 limits assumed): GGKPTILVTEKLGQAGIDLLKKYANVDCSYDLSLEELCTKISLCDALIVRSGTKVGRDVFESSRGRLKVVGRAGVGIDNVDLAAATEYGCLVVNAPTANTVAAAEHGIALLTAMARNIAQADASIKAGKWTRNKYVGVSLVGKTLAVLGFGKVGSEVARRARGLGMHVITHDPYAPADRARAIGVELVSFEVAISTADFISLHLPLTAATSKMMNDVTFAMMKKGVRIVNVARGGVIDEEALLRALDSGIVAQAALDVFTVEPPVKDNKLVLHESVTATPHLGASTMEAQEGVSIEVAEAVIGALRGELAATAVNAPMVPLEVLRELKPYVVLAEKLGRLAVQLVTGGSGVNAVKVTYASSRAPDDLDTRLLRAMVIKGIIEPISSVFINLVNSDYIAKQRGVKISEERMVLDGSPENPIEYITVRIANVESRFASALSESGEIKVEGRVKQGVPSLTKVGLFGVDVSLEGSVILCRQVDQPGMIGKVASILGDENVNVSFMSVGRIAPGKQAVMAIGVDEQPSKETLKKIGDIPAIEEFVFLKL
Assay name: 3-PGA oxidation, NADH absorbance at […] nm; Hill fit
pEC50: −log10 of the molar value.
Property: pEC50

Check out these entries, answers already filled in.
- Smiles text: "N[C@@H](CCO)C(=O)O"
  pEC50: 2.04
- Smiles text: "CC(C)[C@H](N)C(=O)O"
  pEC50: 2.64

I = CSCC[C@H](N)C(=O)O
II = C[C@H](N)C(=O)O
III = N[C@@H](CCS)C(=O)O
IV = N[C@@H](CO)C(=O)O
Query: Hey, quick one: sort these by pEC50, largest value first please. Put the labels in the requested order and write them down.
Reply: III, IV, I, II
(III: 4.16, IV: 2.89, I: 2.60, II: 2.31)

---

Target or system: AtPGDH1 (Arabidopsis thaliana, UniProt O49485)
Construct: mature enzyme, predicted chloroplast transit peptide removed; eXact tag cleaved (tag-free); E. coli BL21 CodonPlus(DE3)-RIL; homotetramer
Sequence (O49485 59-603 limits assumed): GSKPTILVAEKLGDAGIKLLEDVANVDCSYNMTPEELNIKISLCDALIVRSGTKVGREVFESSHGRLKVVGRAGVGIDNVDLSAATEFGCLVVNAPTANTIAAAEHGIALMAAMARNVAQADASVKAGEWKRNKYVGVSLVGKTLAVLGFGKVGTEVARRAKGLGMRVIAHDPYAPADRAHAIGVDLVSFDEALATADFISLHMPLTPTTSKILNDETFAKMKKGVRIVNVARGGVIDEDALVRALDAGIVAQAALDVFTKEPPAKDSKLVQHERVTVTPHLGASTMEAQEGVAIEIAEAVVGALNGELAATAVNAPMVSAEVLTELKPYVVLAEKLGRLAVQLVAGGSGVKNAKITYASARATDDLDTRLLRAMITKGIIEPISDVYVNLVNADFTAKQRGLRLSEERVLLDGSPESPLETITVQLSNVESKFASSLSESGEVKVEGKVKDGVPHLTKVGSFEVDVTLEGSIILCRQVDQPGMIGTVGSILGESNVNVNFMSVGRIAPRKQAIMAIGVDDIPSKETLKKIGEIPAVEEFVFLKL
Assay name: 3-PGA oxidation, NADH absorbance at […] nm; Hill fit
Property: EC50 (mM)

Check out these entries, answers already filled in.
- Smiles text: "CSCC[C@H](N)C(=O)O"
  EC50, mM: 0.67
- Smiles text: "N[C@@H](CO)C(=O)O"
  EC50, mM: 6.6
- Smiles text: "CC(C)[C@H](N)C(=O)O"
  EC50, mM: 7.1
- Smiles text: "N[C@@H](CCS)C(=O)O"
  EC50, mM: 0.023

I = N[C@@H](CCO)C(=O)O
II = C[C@H](N)C(=O)O
Query: Please compare: I and II . Report which one has the smaller EC50 value. Mark your selection by writing its label.
Reply: I
(I: 3 mM, II: 5.3 mM)

Sourced from paper PMC5471267
